Experimental system: Fatty acid-binding protein, adipocyte (Homo sapiens, UniProt P15090)
Assay notes: Displacement of 8-anilino-1-naphthalene-sulfonic acid from human His-FABP4 expressed in Escherichia coli BL21 (DE3) cells after 3 mins relative to linoleic acid
Sequence (P15090 whole entry): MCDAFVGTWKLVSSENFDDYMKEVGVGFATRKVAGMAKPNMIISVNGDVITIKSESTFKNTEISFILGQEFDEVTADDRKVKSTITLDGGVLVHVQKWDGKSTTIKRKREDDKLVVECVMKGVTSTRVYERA
pIC50: −log10 of the molar value.
Value type: pIC50

Known pIC50 results, listed for orientation:
In [3]: df
Out[3]:
                             chem_smiles                       experimental_system  value_type  readout_number
0  O=C(O)CSCC(=O)NCc1c(Cl)cccc1Oc1ccccc1  Fatty acid-binding protein, adipocyte (Homo sapiens, UniProt P15090)       pIC50            5.51
1         O=C(O)CSCC(=O)Nc1ccc(F)c(Cl)c1  Fatty acid-binding protein, adipocyte (Homo sapiens, UniProt P15090)       pIC50            5.36

[a] O=C(O)CSCC(=O)NCc1ccccc1N1CCCCC1
[b] O=C(O)CSCC(=O)Nc1cc(Cl)cc(Cl)c1
Task: Among a and b , which shows a numerically higher pIC50 result? Answer format: the label of the selected item.
Output: b
(b: 6.00, a: 5.39)

----------
Species: Homo sapiens
Assay notes: Selectivity index, ratio of IC50 for His-human FABP3 to IC50 for human His-FABP4
Value type: Ratio IC50

[a] O=C(O)CSCC(=O)NCc1c(Cl)cccc1Oc1ccccc1
[b] O=C(O)CSCC(=O)NCc1ccccc1N1CCCCC1
Task: Could you check which of a and b has a smaller value for Ratio IC50? Bench note: the answer is the label of the chosen record.
Output: a
(a: 0.6, b: 1.5)

----------
Experimental system: Fatty acid-binding protein, heart (Homo sapiens)
Sequence (P05413 whole entry): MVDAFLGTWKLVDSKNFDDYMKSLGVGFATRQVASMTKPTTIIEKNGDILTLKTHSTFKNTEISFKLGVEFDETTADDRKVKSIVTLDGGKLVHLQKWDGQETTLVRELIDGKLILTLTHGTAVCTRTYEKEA
Assay notes: Displacement of 8-anilino-1-naphthalene-sulfonic acid from human His-FABP3 expressed in Escherichia coli BL21 (DE3) cells after 3 mins relative to linoleic acid
Value type: IC50

Task: # IC50 lookup, item "O=C(O)CSCC(=O)Nc1ccc(F)c(Cl)c1"
Output: > 432 µM

----------
Experimental system: Fatty acid-binding protein, adipocyte (Homo sapiens, UniProt P15090)
Assay notes: Displacement of 8-anilino-1-naphthalene-sulfonic acid from human His-FABP4 expressed in Escherichia coli BL21 (DE3) cells after 3 mins
pIC50: −log10 of the molar value.
Value type: pIC50

>>> df
                        chem_smiles                       experimental_system  readout_number
0  O=C(O)CSCC(=O)NCc1ccccc1N1CCCCC1  Fatty acid-binding protein, adipocyte (Homo sapiens, UniProt P15090)            4.25
1    O=C(O)CSCC(=O)Nc1ccc(F)c(Cl)c1  Fatty acid-binding protein, adipocyte (Homo sapiens, UniProt P15090)            4.23

[P] O=C(O)CSCC(=O)NCc1c(Cl)cccc1Oc1ccccc1
[Q] O=C(O)CSCC(=O)Nc1cc(Cl)cc(Cl)c1
Task: Please compare: P and Q . Report which one has the smaller pIC50 value. Label of pick, please.
Output: P

----------
Experimental system: Fatty acid-binding protein, adipocyte (Homo sapiens)
Assay notes: Displacement of 8-anilino-1-naphthalene-sulfonic acid from human His-FABP4 expressed in Escherichia coli BL21 (DE3) cells at 100 uM after 3 mins
Sequence (P15090 2-132 limits assumed): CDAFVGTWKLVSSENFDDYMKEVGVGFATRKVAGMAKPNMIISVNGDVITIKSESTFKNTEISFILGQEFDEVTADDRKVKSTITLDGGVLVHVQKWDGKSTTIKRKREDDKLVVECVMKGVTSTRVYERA
Value type: inhibition (%)

// worked examples, inhibition included
In [3]: df
Out[3]:
                                   molecule  readout_number
0             CCCCC/C=C\C/C=C\CCCCCCCC(=O)O            81.4
1     O=C(O)CSCC(=O)NCc1c(Cl)cccc1Oc1ccccc1            62.5
2  COc1ccc(-c2c(C(F)(F)F)nn(C)c2NC(=O)CSCC(=O)O)cc1            20.1
3          O=C(O)CSCC(=O)NCc1ccccc1N1CCCCC1            58.7
4            O=C(O)CSCC(=O)Nc1ccc(F)c(Cl)c1            56.2

[a] O=[N+]([O-])c1ccc(S(=O)(=O)c2ccccc2)cc1OS(=O)(=O)c1cc(Cl)cc(Cl)c1
[b] CCCCCCCC/C=C\CCCCCCCC(=O)O
Task: Of the two listed items, which has the higher inhibition? First: a Second: b Write down the label attached to your selection.
Output: b

[A] O=c1[nH]nc(SCCS(=O)(=O)c2ccc(Cl)cc2Cl)n1-c1ccc2c(c1)OCCO2
[B] O=C(O)CSCC(=O)Nc1cc(Cl)cc(Cl)c1
Task: Choose between A and B : whose measured inhibition value is numerically larger? Mark your selection by writing its label.
Output: B

Origin of the recorded values: ChEMBL document CHEMBL1155532
